Catalogue of Ki readings, one per entry.
SYSTEM UNDER TEST: Melatonin receptor type 1A (Homo sapiens, UniProt P48039)
Sequence (P48039 whole entry): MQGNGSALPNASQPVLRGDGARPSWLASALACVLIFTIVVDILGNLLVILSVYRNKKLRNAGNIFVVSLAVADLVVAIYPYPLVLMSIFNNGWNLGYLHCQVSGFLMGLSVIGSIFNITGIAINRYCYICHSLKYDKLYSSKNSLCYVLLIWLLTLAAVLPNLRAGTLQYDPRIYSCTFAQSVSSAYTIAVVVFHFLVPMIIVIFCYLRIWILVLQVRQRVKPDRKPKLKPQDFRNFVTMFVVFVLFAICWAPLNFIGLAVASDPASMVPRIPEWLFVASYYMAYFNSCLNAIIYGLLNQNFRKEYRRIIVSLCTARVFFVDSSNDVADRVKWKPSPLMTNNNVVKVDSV
METHOD NOTES: Displacement of 2[125I]iodomelatonin from human recombinant MT1 receptor expressed in NIH3T3 cells

{"columns": ["SMI", "UNIT LABEL", "Ki"],
 "data": [
  ["COc1cc(C)c2c(c1)c(CCNC(C)=O)cn2C", "nM", 8.71],
  ["CCCC(=O)NCCc1cn(C)c2c(Br)cc(OC)cc12", "nM", 33.1],
  ["CCCC(=O)NCCc1cn(C)c2c(-c3ccccc3)cc(OC)cc12", "nM", 5370],
  ["CCCC(=O)NCCc1c[nH]c2c(C)cc(OC)cc12", "nM", 2.88],
  ["COc1cc(Br)c2c(c1)c(CCNC(C)=O)cn2C", "nM", 10.5],
  ["CCC(=O)NCCc1cn(C)c2c(C)cc(OC)cc12", "nM", 15.8]
]}
